Reference source for all entries: patent US20090304692A1

biological target: PI3K-α (Homo sapiens, UniProt P42336); assay: PI3K-alpha fluorescence polarization assay; conditions: read-out: IC50 PI3Kα
Sequence (P42336 whole entry, species assumed): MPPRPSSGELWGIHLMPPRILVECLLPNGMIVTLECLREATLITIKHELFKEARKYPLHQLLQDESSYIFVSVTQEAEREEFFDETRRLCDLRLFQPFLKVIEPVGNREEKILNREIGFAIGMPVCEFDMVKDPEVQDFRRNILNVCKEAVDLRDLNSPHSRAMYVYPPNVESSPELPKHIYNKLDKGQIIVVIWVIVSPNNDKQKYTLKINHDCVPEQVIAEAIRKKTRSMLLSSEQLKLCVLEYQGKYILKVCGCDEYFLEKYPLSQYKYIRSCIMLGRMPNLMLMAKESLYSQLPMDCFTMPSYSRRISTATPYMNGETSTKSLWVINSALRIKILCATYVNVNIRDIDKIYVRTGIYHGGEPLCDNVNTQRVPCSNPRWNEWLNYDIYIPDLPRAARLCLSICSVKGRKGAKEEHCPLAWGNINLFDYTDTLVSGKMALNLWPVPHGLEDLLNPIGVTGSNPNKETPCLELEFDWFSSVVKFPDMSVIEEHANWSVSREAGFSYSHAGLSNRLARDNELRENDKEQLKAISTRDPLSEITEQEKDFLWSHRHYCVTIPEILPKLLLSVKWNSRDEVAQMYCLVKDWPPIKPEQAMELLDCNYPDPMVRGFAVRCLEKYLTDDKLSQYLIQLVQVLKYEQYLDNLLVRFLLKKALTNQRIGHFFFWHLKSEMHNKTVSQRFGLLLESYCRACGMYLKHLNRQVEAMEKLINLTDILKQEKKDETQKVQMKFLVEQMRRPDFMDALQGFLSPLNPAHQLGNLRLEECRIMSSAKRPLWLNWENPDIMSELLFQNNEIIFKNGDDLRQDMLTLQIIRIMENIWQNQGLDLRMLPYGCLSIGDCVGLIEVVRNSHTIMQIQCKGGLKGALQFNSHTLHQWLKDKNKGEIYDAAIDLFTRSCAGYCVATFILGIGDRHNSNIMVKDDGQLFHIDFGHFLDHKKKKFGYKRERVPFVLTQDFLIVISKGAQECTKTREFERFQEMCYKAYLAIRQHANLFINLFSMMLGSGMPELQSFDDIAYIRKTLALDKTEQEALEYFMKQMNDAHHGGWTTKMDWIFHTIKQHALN
Sequence (P27986 whole entry partner, species assumed): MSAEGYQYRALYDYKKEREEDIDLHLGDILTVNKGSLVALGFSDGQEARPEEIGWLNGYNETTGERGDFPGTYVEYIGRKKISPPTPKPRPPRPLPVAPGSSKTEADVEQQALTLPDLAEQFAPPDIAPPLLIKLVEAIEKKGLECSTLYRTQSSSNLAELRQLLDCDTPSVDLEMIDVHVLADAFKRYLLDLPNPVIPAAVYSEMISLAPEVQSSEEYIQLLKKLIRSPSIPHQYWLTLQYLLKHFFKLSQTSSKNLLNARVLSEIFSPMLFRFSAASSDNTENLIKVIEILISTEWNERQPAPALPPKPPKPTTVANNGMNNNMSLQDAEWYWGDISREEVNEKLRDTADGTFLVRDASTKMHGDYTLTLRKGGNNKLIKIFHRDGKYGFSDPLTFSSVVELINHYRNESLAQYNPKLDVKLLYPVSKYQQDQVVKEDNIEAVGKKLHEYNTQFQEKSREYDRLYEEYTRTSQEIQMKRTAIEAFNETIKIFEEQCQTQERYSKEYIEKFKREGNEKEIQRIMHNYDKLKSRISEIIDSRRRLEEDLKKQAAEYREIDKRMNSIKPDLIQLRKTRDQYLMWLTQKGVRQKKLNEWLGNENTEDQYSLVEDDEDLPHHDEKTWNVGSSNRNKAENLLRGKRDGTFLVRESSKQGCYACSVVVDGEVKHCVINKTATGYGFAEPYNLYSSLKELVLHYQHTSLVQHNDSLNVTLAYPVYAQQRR
MEASURE: IC50 (nM)

{"COMPOUND": "O=C(Nc1ccc(C(=O)N2CCC(N3CCCC3)CC2)cc1)Nc1ccc(-c2nc(N3CCOCC3)nc(N3C4CCC3COC4)n2)cc1 [Example 761]", "TARGET ENTITY": "PI3K-α (Homo sapiens, UniProt P42336)", "IC50 (nM)": 2}
{"COMPOUND": "CCc1nc(-c2ccc(NC(=O)Nc3ccc(C(=O)Nc4ccc(N5CCN(C)CC5)cc4)cc3)cc2)nc(N2CCOCC2)n1 [Example 251]", "TARGET ENTITY": "PI3K-α (Homo sapiens, UniProt P42336)", "IC50 (nM)": 2}

I: CC(O)c1nc(-c2ccc(NC(=O)Nc3ccncc3)cc2)nc(N2CCOCC2)n1 (stereo not shown) [Example 223]
II: Cc1cc(NC(=O)Nc2ccc(-c3nc(N4CCOCC4)nc(N4CCOCC4)n3)cc2)ccn1 [Example 49]
III: O=C(Nc1ccc(C(=O)N2CCNCC2)cc1)Nc1ccc(-c2nc(N3CCOCC3)nc(N3CC4CCC3CO4)n2)cc1 (stereo not shown) [Example 814]
IV: CN(C)C1CCN(C(=O)c2ccc(NC(=O)Nc3ccc(-c4nc(N5CCCCC5)nc(N5CCOCC5)n4)cc3)cc2)CC1 [Example 598]
V: COC(=O)c1ccc(NC(=O)Nc2ccc(-c3nc(-c4ccccc4)nc(N4CCOCC4)n3)cc2)cc1 [Example 538]
List items by IC50 in falling order. Please list the labels in the order you were asked to rank them.
V, IV, II, I, III
(V: 333 nM, IV: 5.5 nM, II: 3 nM, I: 2 nM, III: 0.8 nM)

====

biological target: PI3K-γ (Homo sapiens, UniProt P48736); test: PI3K-gamma fluorescence polarization assay; settings: read-out: IC50 PI3Kγ
Sequence (P48736 whole entry, species assumed): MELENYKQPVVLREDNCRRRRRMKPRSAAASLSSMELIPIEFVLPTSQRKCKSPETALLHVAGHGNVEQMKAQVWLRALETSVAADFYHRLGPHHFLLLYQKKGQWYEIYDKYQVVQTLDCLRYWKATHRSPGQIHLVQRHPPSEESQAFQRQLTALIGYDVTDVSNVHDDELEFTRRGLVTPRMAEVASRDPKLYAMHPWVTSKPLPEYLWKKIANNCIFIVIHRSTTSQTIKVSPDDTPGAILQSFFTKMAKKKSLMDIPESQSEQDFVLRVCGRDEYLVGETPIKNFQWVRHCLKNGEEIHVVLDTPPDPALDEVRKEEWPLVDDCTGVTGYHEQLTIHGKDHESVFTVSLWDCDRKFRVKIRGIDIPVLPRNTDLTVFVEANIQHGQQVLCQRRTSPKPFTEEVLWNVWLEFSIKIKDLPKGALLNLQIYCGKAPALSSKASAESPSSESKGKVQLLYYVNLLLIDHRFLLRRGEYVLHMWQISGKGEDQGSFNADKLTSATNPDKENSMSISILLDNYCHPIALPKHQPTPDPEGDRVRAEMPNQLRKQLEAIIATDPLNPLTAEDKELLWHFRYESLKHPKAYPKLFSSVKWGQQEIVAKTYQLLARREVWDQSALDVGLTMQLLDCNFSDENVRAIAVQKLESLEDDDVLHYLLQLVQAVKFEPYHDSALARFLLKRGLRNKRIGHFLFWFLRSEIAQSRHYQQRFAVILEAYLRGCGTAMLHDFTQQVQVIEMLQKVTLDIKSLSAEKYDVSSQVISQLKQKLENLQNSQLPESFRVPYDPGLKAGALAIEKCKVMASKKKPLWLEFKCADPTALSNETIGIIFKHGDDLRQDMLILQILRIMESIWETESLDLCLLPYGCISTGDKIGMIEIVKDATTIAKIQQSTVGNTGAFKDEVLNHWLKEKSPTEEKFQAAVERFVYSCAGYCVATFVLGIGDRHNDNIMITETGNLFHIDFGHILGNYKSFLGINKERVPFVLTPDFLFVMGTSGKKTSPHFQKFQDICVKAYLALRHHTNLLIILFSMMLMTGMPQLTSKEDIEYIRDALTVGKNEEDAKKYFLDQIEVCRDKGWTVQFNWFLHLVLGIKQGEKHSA
pIC50: −log10 of the molar value.
MEASURE: pIC50

{"COMPOUND": "O=C(Nc1ccncc1)Nc1ccc(-c2nc(CCCN3CCCC3)nc(N3CCOCC3)n2)cc1 [Example 276]", "RESULT NUMBER": 6.22}

A: O=C(Nc1ccccc1)Nc1ccc(-c2nc(Nc3ccc(N4CCNCC4)cc3)nc(N3CC4CCC(C3)O4)n2)cc1 [Example 330]
B: CCc1nc(-c2ccc(NC(=O)Nc3ccc(C(=O)N4CCN(c5ccccn5)CC4)cc3)cc2)nc(N2CCOCC2)n1 [Example 534]
C: O=CCCc1nc(-c2ccc(NC(=O)Nc3ccncc3)cc2)nc(N2CCOCC2)n1 [Example 280]
Ordering: ascending pIC50. Please list the labels in the order you were asked to rank them.
A, C, B

====

molecular target: PI3K-α (Homo sapiens); assay: PI3K-alpha fluorescence polarization assay; conditions: read-out: IC50 PI3Kα
MEASURE: IC50 (nM)

Recorded IC50, per entry:
{"COMPOUND": "O=C(Nc1ccncc1)Nc1ccc(-c2nc(N3CCOCC3)nc(N3C4CCC3COC4)n2)cc1 [Example 34]", "TARGET ENTITY": "PI3K-α (Homo sapiens)", "IC50 (nM)": 9}
{"COMPOUND": "Nc1ccc(-c2nc(N3CCOCC3)nc(N3C4CCC3COC4)n2)cc1 [Example 33]", "TARGET ENTITY": "PI3K-α (Homo sapiens)", "IC50 (nM)": 2550}

I: CN1CCCN(c2nc(-c3ccc(NC(=O)Nc4cccnc4)cc3)nc(N3CC4CCC(C3)O4)n2)C1 [Example 172]
II: Cc1ccc(-c2nc(-c3ccc(NC(=O)Nc4ccc(C(=O)N5CCN(C(C)C)CC5)cc4)cc3)nc(N3CCOCC3)n2)cc1 [Example 547]
Which record would sort first by descending IC50, I or II ? Please identify the chosen entry by its label.
I
